tested on: rat DRG neurons; test: Inhibition of gp120-mediated CGRP-release from rat DRG neurons (Method B); conditions: result in words
observedProperty: inhibition of gp120-mediated CGRP release from DRG neurons

INSERT INTO results (compound, valueobserved) VALUES
  ('CCN(CC)CCCC(C)Nc1c2ccc(Cl)cc2nc2ccc(OC)cc12 (centres unmarked) [QN, Quinacrine]', 'completely inhibited'),
  ('N#CC(=C(/N)Sc1ccccc1N)/C(C#N)=C(\N)Sc1ccccc1N [Compound U0126]', 'completely inhibited'),
  ('O=C(NCc1ccc(OC(F)(F)F)cc1)Nc1cccc2c1CC(O)CC2 (centres unmarked) [Cpd. Example 1]', 'completely inhibited'),
  ('Oc1cc2c(cc1O)CN(C(=S)NCCc1ccc(Cl)cc1)CCC2 [CAZ, Capsazepin]', 'completely inhibited'),
  ('CC(Cc1ccc(O)c(O)c1)C(C)Cc1ccc(O)c(O)c1 (centres unmarked) [NGDA, Nordihydroguaiaretic Acid]', 'completely inhibited'),
  ('C[S+]([O-])c1ccc(-c2nc(-c3ccncc3)c(-c3ccc(F)cc3)[nH]2)cc1 (centres unmarked) [SB203580]', 'completely inhibited'),
  ('COc1cccc(-c2cc(=O)c3ccccc3o2)c1N [PD98059]', 'completely inhibited');
